assayName: recombinant barcode read abundance after kanamycin selection (control-corrected) (log10(CPM+1)); higher = more efficient recombination; sequences stand for … in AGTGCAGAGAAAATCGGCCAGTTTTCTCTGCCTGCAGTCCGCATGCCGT…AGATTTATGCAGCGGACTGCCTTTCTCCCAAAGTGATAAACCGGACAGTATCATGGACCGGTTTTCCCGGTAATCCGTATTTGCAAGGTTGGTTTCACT; site = the 11-nt target;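 also: IS621 recombinase and bridge RNA in Escherichia coli cells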
Listed sequences paired with reported recombinant barcode read abundance (log10)
attributeMeasured: recombinant barcode read abundance (log10)

[
  {
    "constructSequence": "GGTCAACCTTGGGTTCTAACCTGTTGCCT (site GTTCAACCTAG)",
    "resultValue": 0.486
  },
  {
    "constructSequence": "AATGCTCCTTGGGTTCTAACCTGTTGCTT (site AATGCTCCTAG)",
    "resultValue": 0.103
  },
  {
    "constructSequence": "TAGTAGTCTTGGGTTCTAACCTGTTGCAT (site TAGTAGTCTAA)",
    "resultValue": 0.503
  }
]
